Tested on: Ruminococcus gnavus DSM 108212
Assay: fold change of 2-Phenylethylamine concentration vs plate DMSO controls (fold change (ratio)); higher = more amine produced, active = hit call of the paper (significant change in both replicates, either direction);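 for the amine columns active = adjusted P below 0.05 in both replicates with a change the same way and a mean fold change under 0.8 or over 1.25; inactive = the rest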
Conditions: incubation time: 27 h, anaerobic, 37 °C
Where a name gives a salt, the structure may show the parent alone.
Labels: active, inactive

# compound, categoryLabel
rows = [
    ("CN1CCC(=C2c3ccccc3C=Cc3ccccc32)CC1 [Cyproheptadine hydrochloride] (20 µM)", "inactive"),
    ("CC[N+](C)(C)c1cccc(O)c1 [Edrophonium chloride] (20 µM)", "inactive"),
    ("CCCCc1oc2ccc(NS(C)(=O)=O)cc2c1C(=O)c1ccc(OCCCN(CCCC)CCCC)cc1 [Dronedarone hydrochloride] (20 µM)", "inactive"),
    ("COc1ccccc1O [Guaiacol] (20 µM)", "inactive"),
    ("CC1(C)S[C@@H]2[C@H](NC(=O)Cc3ccccc3)C(=O)N2[C@H]1C(=O)O [Benzylpenicillin sodium] (20 µM)", "active"),
    ("O=C(CCNNC(=O)c1ccncc1)NCc1ccccc1 [Nialamide] (20 µM)", "inactive"),
    ("COc1ccc(CC2c3cc(OC)c(OC)cc3CC[N+]2(C)CCC(=O)OCCCCCOC(=O)CC[N+]2(C)CCc3cc(OC)c(OC)cc3C2Cc2ccc(OC)c(OC)c2)cc1OC (configuration not stated) [Atracurium besylate] (20 µM)", "inactive"),
]
